B1: CPEB3 Ribozyme (parent)
chain: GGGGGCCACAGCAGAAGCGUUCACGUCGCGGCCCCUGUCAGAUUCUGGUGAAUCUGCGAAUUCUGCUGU

Variants of: B1
METHOD_SUMMARY: self-cleavage, relative activity (ratio to wild type); higher = more cleavage; co-transcriptional

{"SEQ_TEXT": "GGGGGUCACAGCAGAAGCGUUCACGUCGCGGCCCCUGUCAGAUUCUGGUGAAUCUGCGAAUUCUGCUGG [C6U U69G]", "self-cleavage": 1.04}
{"SEQ_TEXT": "GCGGGCCACAGCAGAAGCGUUUACGUCGCGGCCCCUGUCAGAUUCUGGUGAAUCUGCGAAUUCUGCUGU [G2C C22U]", "self-cleavage": 0.0697}
{"SEQ_TEXT": "GGGGGCCACAGCAGAAGUGUUCCCGUCGCGGCCCCUGUCAGAUUCUGGUGAAUCUGCGAAUUCUGCUGU [C18U A23C]", "self-cleavage": 0.746}
{"SEQ_TEXT": "GGGGGCCACAGCCGAAGCGUUCUCGUCGCGGCCCCUGUCAGAUUCUGGUGAAUCUGCGAAUUCUGCUGU [A13C A23U]", "self-cleavage": 0.788}
{"SEQ_TEXT": "GGGGGCCACAGCAGAAGUGUUCACGUCGCGGCCCCUGUCAGAUUCGGGUGAAUCUGCGAAUUCUGCUGU [C18U U46G]", "self-cleavage": 0.854}
{"SEQ_TEXT": "GGGAGCCACAGCAGAAGCGUUCACGUCGCGGCCCCUAUCAGAUUCUGGUGAAUCUGCGAAUUCUGCUGU [G4A G37A]", "self-cleavage": 0.179}
{"SEQ_TEXT": "GGGGGCCACAGCAGACGCGUUCACGUCGCGGCCCCUGUCAGAUUCUGGUGAAUCUGCCAAUUCUGCUGU [A16C G58C]", "self-cleavage": 0.28}
{"SEQ_TEXT": "GGGGGCCACAGCAGAAGCGUUCACGUCGUGGCACCUGUCAGAUUCUGGUGAAUCUGCGAAUUCUGCUGU [C29U C33A]", "self-cleavage": 0.355}
{"SEQ_TEXT": "GGGGGCCACAGCAGAAGCGUUCACGUCGCGGCCCCUGUCAGAUUGUGGUGAAUCUGCGAAUUCUGGUGU [C45G C66G]", "self-cleavage": 0.877}
{"SEQ_TEXT": "GGGGGCCACAGCAGAAGCGUUCACGUCGCGGCCCCUGUAAGAUUCUGGUGAAUCUGCGAGUUCUGCUGU [C39A A60G]", "self-cleavage": 0.606}
{"SEQ_TEXT": "GGGGGCCACAGCAGAAGCGUUCGCGUCGCGGCCCCUGUCAGAUUCUGGGGAAUCUGCGAAUUCUGCUGU [A23G U49G]", "self-cleavage": 1.03}
